- System: MIWI (PIWIL1) piRISC loaded with L1MC piRNA (30 nt);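 also: 1 nM active piRISC with 0.1 nM target library at 33 °C single turnover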
- assay details: pre-steady-state target cleavage rate (min^-1); MIWI and MILI are mouse PIWI proteins and EfPiwi is from a freshwater sponge; tags in brackets are library labels; higher = faster piRNA-guided slicing of the target;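 also: 1 nM active piRISC with 0.1 nM target library at 33 °C single turnover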
- recorded conditions: guide: L1MC piRNA 5'p-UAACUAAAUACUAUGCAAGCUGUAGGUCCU; auxiliary factor: 500 nM mouse GTSF1
Whole data set: some 8,200 sequences, median “pre-steady-state target cleavage rate” near 0.024, cut for the highest 2% near 1.3. The list comes from a sample in which the highest values are over-represented; it also holds close analogues and randomly drawn sequences.
Label y when pre-steady-state target cleavage rate >= 0.7; otherwise n.

{"biosequence": "UCCAGCAACAGCUUGCAUAGUAUUUAGUUA", "label value": "y"}
{"biosequence": "UGCACCUUCAGCUUGCAUAGUAUUUAGUUA", "label value": "y"}
{"biosequence": "UGGAGGAACAGCUUGCAUAGUAUUUAGUUA", "label value": "y"}
{"biosequence": "UCCUCCUUCAGCUUGCAAAGUAUUUAGUUA", "label value": "y"}
{"biosequence": "UCGACCUACAGCAUGCAUAGUAUUUAGUUA", "label value": "y"}
{"biosequence": "UCCACGUACAGCUAGCAUAGUAUUUAGUUA", "label value": "y"}
{"biosequence": "UCGACCUACAGCUUGCGAUAGUAUUUAGUUA", "label value": "n"}
{"biosequence": "AGGAGCAACAGCUUGCAUAGUAUUUAGUUA", "label value": "y"}
{"biosequence": "UCCUGGAUGAGCUAGCAUAGUAUUUAGAAA", "label value": "n"}
{"biosequence": "AGGACCUACAGCUUGCGUAGUAUUUAGUUA", "label value": "y"}
{"biosequence": "UCGACCUACAGCUUGCGUAGUAUUUAGUUA", "label value": "y"}
{"biosequence": "UCCUGGAACAGCUUGCAUAGUAUCUUAGUUA", "label value": "y"}
{"biosequence": "UCCACCUACAGCUUGCAUAGUAAAUAGUUA", "label value": "n"}
{"biosequence": "UCCAGCUACAGCUUGCAUAGUAUUAAGUUA", "label value": "n"}
{"biosequence": "UCCUCCAACAGCAUGCAUAGUAUUUAGUUA", "label value": "y"}
{"biosequence": "UCCACCUACAGCUUGCGUAGUAUUUAGUUA", "label value": "y"}
{"biosequence": "UCCUGGAUGUCCAUGCAUAGUAAUUAGUUA", "label value": "n"}
{"biosequence": "UCCUGCUACAGCUUGCAUAGUAUUUUGUAA", "label value": "n"}
{"biosequence": "UCCUGGAAGUCCUUGCAUAGUAUUUAGUUA", "label value": "n"}
{"biosequence": "UCCUGGUACACCUUGCAUAGUAUUUUGUUA", "label value": "n"}
{"biosequence": "UCCUGGAACAGCUUGCAUAGUAUCUAGUUA", "label value": "n"}
{"biosequence": "UCGACCAACAGGUUGCAUAGUAUUUAGUUA", "label value": "y"}
{"biosequence": "UCCACGAUCAGCUUGCAUAGUAUUUAGAAA", "label value": "n"}
{"biosequence": "UGGACCUACAGCUUGCAUACUAUUUUCAAA", "label value": "n"}
{"biosequence": "AGGACCAACAGCAUGCAUAGUAUUUAGUUA", "label value": "y"}
{"biosequence": "AGCACCUACAGCAUGCAUAGUAUUUAGUUA", "label value": "y"}
{"biosequence": "UCCUGGAACAGCUUGCAUAGUAUUUAGUUA [g2:g23:cont:t1A]", "label value": "y"}
{"biosequence": "UCCUGCUACAGCUUGCAUAGUAUUUAGUA", "label value": "n"}
{"biosequence": "UCGACCUUCAGCUUGCUUAGUAUUUAGUUA", "label value": "y"}
{"biosequence": "UCCUGGAUGUGCUUGCAUAGUAUUUAUGUUA", "label value": "n"}
{"biosequence": "UCCUGGAUGUCCUUGCAUAGUUUUUACUUA", "label value": "n"}
{"biosequence": "UCCACGAUCAGCUUGCAUAGUAUUUAGUUA", "label value": "y"}
{"biosequence": "AGGACCUACAGCUUGCAUAGUAUUUUGUUA", "label value": "y"}
{"biosequence": "UCGACCUACAGCUUGCCUAGUAUUUAGUUA", "label value": "y"}
{"biosequence": "AGGACCUACAGCUUGCAUAGUAUUUAAUUA", "label value": "n"}
{"biosequence": "UCCUGGAGCAGCUUGCAUAGUAUUUAGUUA", "label value": "y"}
{"biosequence": "UCCUGCAACAGCUUGCAUUGUAUUUAGUUA", "label value": "y"}
{"biosequence": "UCCUGGAUCAGCUAGCAUAGUAUUUUCAAA", "label value": "n"}
{"biosequence": "ACGACCUACAGCAUGCAUAGUAUUUAGUUA", "label value": "y"}

Recorded values, source the supplement of paper PMC10338343.
